# TEST_TARGET: dAsCas12a E174R (Acidaminococcus sp., UniProt U2UMQ6 1-1307, E174R;D908A;E993A;D1235A)
# ASSAY_SUMMARY: Spec-seq (native PAGE EMSA with sequencing of bound and unbound); 25 mM Tris-HCl pH 7.4, 150 mM KCl, 5 mM MgCl2, 10% glycerol, 1 mM DTT, 40 ng/uL salmon sperm DNA; 400 nM Cas12a, 480 nM crRNA, 50 nM library, 37 C 1 h; native PAGE at room temperature; high values mean tight binding;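 further: relative affinity from the bound to unbound sequence frequency ratio in Spec-seq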
# ASSAY_SETUP: protein: recombinant
Parameter binding signal: see the listing below.
MEASURED_METRIC: binding signal (lnKA)

BINDER: CTAG (dsDNA) DNA 1: GCTATCTAGTGCTCAGTACGCACTGCTAGAGGAAACTTCTGGCAGGACCAGGTCATGAGATCGGAAGAGCACACGTCTGAACTCCAGTCA DNA 2: TGACTGGAGTTCAGACGTGTGCTCTTCCGATCTCATGACCTGGTCCTGCCAGAAGTTTCCTCTAGCAGTGCGTACTGAGCACTAGATAGC RNA: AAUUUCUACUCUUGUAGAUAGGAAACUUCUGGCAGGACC
MEASURED_METRIC: binding signal
RECORDED_RESULT: -8.81
--
BINDER: GCCA (dsDNA) DNA 1: GCTATCTAGTGCTCAGTACGCACTGGCCAAGGAAACTTCTGGCAGGACCAGGTCATGAGATCGGAAGAGCACACGTCTGAACTCCAGTCA DNA 2: TGACTGGAGTTCAGACGTGTGCTCTTCCGATCTCATGACCTGGTCCTGCCAGAAGTTTCCTTGGCCAGTGCGTACTGAGCACTAGATAGC RNA: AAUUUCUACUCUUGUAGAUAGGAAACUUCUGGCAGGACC
MEASURED_METRIC: binding signal
RECORDED_RESULT: -8.91
--
BINDER: AGTT (dsDNA) DNA 1: GCTATCTAGTGCTCAGTACGCACTGAGTTAGGAAACTTCTGGCAGGACCAGGTCATGAGATCGGAAGAGCACACGTCTGAACTCCAGTCA DNA 2: TGACTGGAGTTCAGACGTGTGCTCTTCCGATCTCATGACCTGGTCCTGCCAGAAGTTTCCTAACTCAGTGCGTACTGAGCACTAGATAGC RNA: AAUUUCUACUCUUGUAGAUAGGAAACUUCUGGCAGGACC
MEASURED_METRIC: binding signal
RECORDED_RESULT: -8.38
--
BINDER: GCTT (dsDNA) DNA 1: GCTATCTAGTGCTCAGTACGCACTGGCTTAGGAAACTTCTGGCAGGACCAGGTCATGAGATCGGAAGAGCACACGTCTGAACTCCAGTCA DNA 2: TGACTGGAGTTCAGACGTGTGCTCTTCCGATCTCATGACCTGGTCCTGCCAGAAGTTTCCTAAGCCAGTGCGTACTGAGCACTAGATAGC RNA: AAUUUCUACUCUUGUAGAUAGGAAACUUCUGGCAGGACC
MEASURED_METRIC: binding signal
RECORDED_RESULT: -8.39
--
BINDER: TTAT (dsDNA) DNA 1: GCTATCTAGTGCTCAGTACGCACTGTTATAGGAAACTTCTGGCAGGACCAGGTCATGAGATCGGAAGAGCACACGTCTGAACTCCAGTCA DNA 2: TGACTGGAGTTCAGACGTGTGCTCTTCCGATCTCATGACCTGGTCCTGCCAGAAGTTTCCTATAACAGTGCGTACTGAGCACTAGATAGC RNA: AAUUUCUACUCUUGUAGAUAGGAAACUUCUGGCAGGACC
MEASURED_METRIC: binding signal
RECORDED_RESULT: -8.07
--
BINDER: TTCT (dsDNA) DNA 1: GCTATCTAGTGCTCAGTACGCACTGTTCTAGGAAACTTCTGGCAGGACCAGGTCATGAGATCGGAAGAGCACACGTCTGAACTCCAGTCA DNA 2: TGACTGGAGTTCAGACGTGTGCTCTTCCGATCTCATGACCTGGTCCTGCCAGAAGTTTCCTAGAACAGTGCGTACTGAGCACTAGATAGC RNA: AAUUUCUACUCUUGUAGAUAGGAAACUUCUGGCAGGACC
MEASURED_METRIC: binding signal
RECORDED_RESULT: -6.23
--
BINDER: TCCC (dsDNA) DNA 1: GCTATCTAGTGCTCAGTACGCACTGTCCCAGGAAACTTCTGGCAGGACCAGGTCATGAGATCGGAAGAGCACACGTCTGAACTCCAGTCA DNA 2: TGACTGGAGTTCAGACGTGTGCTCTTCCGATCTCATGACCTGGTCCTGCCAGAAGTTTCCTGGGACAGTGCGTACTGAGCACTAGATAGC RNA: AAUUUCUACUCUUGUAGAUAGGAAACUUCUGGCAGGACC
MEASURED_METRIC: binding signal
RECORDED_RESULT: -6.06
--
BINDER: CTTC (dsDNA) DNA 1: GCTATCTAGTGCTCAGTACGCACTGCTTCAGGAAACTTCTGGCAGGACCAGGTCATGAGATCGGAAGAGCACACGTCTGAACTCCAGTCA DNA 2: TGACTGGAGTTCAGACGTGTGCTCTTCCGATCTCATGACCTGGTCCTGCCAGAAGTTTCCTGAAGCAGTGCGTACTGAGCACTAGATAGC RNA: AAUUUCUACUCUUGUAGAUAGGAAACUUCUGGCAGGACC
MEASURED_METRIC: binding signal
RECORDED_RESULT: -3.79
--
BINDER: CCTA (dsDNA) DNA 1: GCTATCTAGTGCTCAGTACGCACTGCCTAAGGAAACTTCTGGCAGGACCAGGTCATGAGATCGGAAGAGCACACGTCTGAACTCCAGTCA DNA 2: TGACTGGAGTTCAGACGTGTGCTCTTCCGATCTCATGACCTGGTCCTGCCAGAAGTTTCCTTAGGCAGTGCGTACTGAGCACTAGATAGC RNA: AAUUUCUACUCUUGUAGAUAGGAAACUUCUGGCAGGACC
MEASURED_METRIC: binding signal
RECORDED_RESULT: -5.98
--
BINDER: GTTT (dsDNA) DNA 1: GCTATCTAGTGCTCAGTACGCACTGGTTTAGGAAACTTCTGGCAGGACCAGGTCATGAGATCGGAAGAGCACACGTCTGAACTCCAGTCA DNA 2: TGACTGGAGTTCAGACGTGTGCTCTTCCGATCTCATGACCTGGTCCTGCCAGAAGTTTCCTAAACCAGTGCGTACTGAGCACTAGATAGC RNA: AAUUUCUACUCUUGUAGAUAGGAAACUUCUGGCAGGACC
MEASURED_METRIC: binding signal
RECORDED_RESULT: -6.98
